EC50 reference
# SUBJECT_OF_TEST: RXR-VDR heterodimer (Homo sapiens)
# Construct: Add the Gal4-RXR-DEF and VP16-VDR-LBD
# Sequence (P11473 127-423 limits assumed): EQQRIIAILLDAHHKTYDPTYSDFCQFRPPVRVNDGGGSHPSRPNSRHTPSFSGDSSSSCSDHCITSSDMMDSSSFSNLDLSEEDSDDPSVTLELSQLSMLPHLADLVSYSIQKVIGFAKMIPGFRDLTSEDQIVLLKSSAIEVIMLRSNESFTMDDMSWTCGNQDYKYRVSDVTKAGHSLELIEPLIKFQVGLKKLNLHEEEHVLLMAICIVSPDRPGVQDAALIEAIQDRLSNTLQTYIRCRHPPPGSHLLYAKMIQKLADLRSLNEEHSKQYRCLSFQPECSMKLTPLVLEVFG
# Sequence (P19793 201-462 partner limits assumed): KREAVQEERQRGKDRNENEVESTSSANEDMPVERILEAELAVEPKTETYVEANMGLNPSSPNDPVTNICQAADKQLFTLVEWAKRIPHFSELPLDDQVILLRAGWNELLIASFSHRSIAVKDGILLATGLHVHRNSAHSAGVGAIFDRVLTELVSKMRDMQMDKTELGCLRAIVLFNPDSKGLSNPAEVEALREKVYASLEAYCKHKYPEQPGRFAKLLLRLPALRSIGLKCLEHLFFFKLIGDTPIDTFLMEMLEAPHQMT
# TEST_NAME: RXR-VDR heterodimerization assay (SaOS-2 cells)
# MEASUREMENT_CONDITIONS: Gal4-RXR-DEF / VP16-VDR-LBD, luciferase reporter
Express it in µM; write the number only.

For orientation, consider the following solved cases.
Record request: EC50 value, item "CCCS(=O)(=O)N(c1ccc(C(CC)(CC)c2ccc(OCC(=O)C(C)(C)C)c(C)c2)cc1C)S(=O)(=O)CCC" 0.0473

Try this molecule next: CCC(CC)(c1ccc(OC[C@@](C)(O)C(C)(C)C)c(C)c1)c1ccc(OS(=O)(=O)C(F)(F)F)c(C)c1 (stereo in doubt) 0.138

---
Quick one: EC50 for "CCC(CC)(c1ccc(OCC(=O)C(C)(C)C)cc1)c1ccc(OS(C)(=O)=O)c(C)c1" ? 0.0152

Please answer likewise for "CCC(CC)(c1ccc(OS(C)(=O)=O)cc1)c1ccc(OCC(=O)C(C)(C)C)c(Cl)c1" 0.495

###

# TEST_NAME: Mouse hypercalcemia assay
# MEASUREMENT_CONDITIONS: oral gavage for 6 days, serum ionized calcium 6 hours after last dosing
In this section, each of the compounds is paired with its reported Mouse Hypercal.
Express it in µg/kg/day; write the number only.

Recorded Mouse Hypercal for "CCC(CC)(c1ccc(OCC(=O)C(C)(C)C)c(C)c1)c1ccc(N(S(=O)(=O)CC(F)(F)F)S(=O)(=O)CC(F)(F)F)c(C)c1" , please? 1000

New cases:
Fill blank: measured Mouse Hypercal of the compound "CCC(CC)(c1ccc(NS(=O)(=O)CC(F)(F)F)c(C)c1)c1ccc(OCC(=O)C(C)(C)C)c(C)c1" is ____. 100

###

Recorded measurements of Mouse Hypercal, one per entry
# TEST_NAME: Mouse hypercalcemia assay
# MEASUREMENT_CONDITIONS: oral gavage for 6 days, serum ionized calcium 6 hours after last dosing
// return numeric value only (unit: µg/kg/day, not printed)

Worked cases, answers included:
Data request, read-out Mouse Hypercal, for CCC(CC)(c1ccc(OCC(O)C(C)(C)C)c(C)c1)c1ccc(OS(=O)(=O)C(F)(F)F)c(C)c1 (stereo not drawn) 300

What about this compound? CCC(CC)(c1ccc(OC[C@H](O)C(C)(C)C)c(C)c1)c1ccc(OS(C)(=O)=O)c(C)c1 (single isomer, unassigned) [Ex. 2] 50

Similarly, CCC(CC)(c1ccc(OC[C@H](O)C(C)(C)C)c(C)c1)c1ccc(OS(C)(=O)=O)c(C)c1 (single isomer, unassigned) [Ex. 3] ? 50

Ok, now CCC(CC)(c1ccc(OCC(O)CO)c(C)c1)c1ccc(OCC(O)C(C)(C)C)c(C)c1 (stereo not drawn) [BB, reference compound] 20

Now consider "CCC(CC)(c1ccc(OCC(=O)C(C)(C)C)c(C)c1)c1ccc(OS(=O)(=O)CC(F)(F)F)c(C)c1" . 100

New cases:
Returns the measured Mouse Hypercal for the input compound. Input: CCC(CC)(c1ccc(OCC(O)C(C)(C)C)c(C)c1)c1ccc(N(C)S(C)(=O)=O)c(C)c1 (single isomer, unassigned) 500

Similarly, "CCC(CC)(c1ccc(NS(=O)(=O)C(F)(F)F)c(C)c1)c1ccc(OCC(=O)C(C)(C)C)c(C)c1" ? 500

How about "CCC(CC)(c1ccc(NS(=O)(=O)CC)c(C)c1)c1ccc(OCC(=O)C(C)(C)C)c(C)c1" ? 500

# repeat for "CCC(CC)(c1ccc(OCC(=O)C(C)(C)C)c(C)c1)c1ccc(N(S(=O)(=O)CC)S(=O)(=O)CC)c(C)c1" 500

Now the same for "CCC(CC)(c1ccc(OCC(=O)C(C)(C)C)c(C)c1)c1cc(C)c(OS(C)(=O)=O)c(C)c1" 300

###

Collected Mouse Hypercal values appear next to each entry.
# TEST_NAME: Mouse hypercalcemia assay
# MEASUREMENT_CONDITIONS: oral gavage for 6 days, serum ionized calcium 6 hours after last dosing

Examples from the recorded data:
Which Mouse Hypercal is listed for "CCC(CC)(c1ccc(OCC(=O)C(C)(C)C)cc1)c1ccc(OS(C)(=O)=O)c(C)c1" ? >3000 µg/kg/day

// next record "CCC(CC)(c1ccc(OS(C)(=O)=O)cc1)c1ccc(OCC(=O)C(C)(C)C)c(Cl)c1" <1000 µg/kg/day

Ok, now "CCC(CC)(c1ccc(OS(C)(=O)=O)cc1)c1ccc(OCC(=O)C(C)(C)C)c(C)c1" <300 µg/kg/day

Proceed to "CCCS(=O)(=O)Nc1ccc(C(CC)(CC)c2ccc(OCC(=O)C(C)(C)C)c(C)c2)cc1C" <1000 µg/kg/day

Next:
Any idea what its Mouse Hypercal is? The compound is CCC(CC)(c1ccc(NS(C)(=O)=O)c(C)c1)c1ccc(OCC(O)C(C)(C)C)c(C)c1 (single isomer, unassigned) <300 µg/kg/day
